target: human GLP-1 receptor (human, UniProt P43220 24-463); experiment: cell-based or functional assay
Bridge positions count the residues as written; N and C are the ends. Square brackets hold non-standard residues; d marks the D form. Ends that are not written are not given here. * marks the point of attachment. Acetyl(2-(4-imidazolyl)) = O=C(Cc1c[nH]cn1)*; Aib = CC(C)(N)C(=O)O
Response field label takes true when In vitro activity compared with native peptide (%) vs GLP-1 (cAMP EC50) is strictly below 10% and false in all other cases.

>>> class_label("[Acetyl(2-(4-imidazolyl))][Aib]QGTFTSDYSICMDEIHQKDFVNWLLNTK (bridge 16-20) [triple agonist of SEQ ID NO: 49]")
"false"
>>> class_label("H[Aib]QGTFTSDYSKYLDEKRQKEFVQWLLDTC (bridge 16-20) [triple agonist of SEQ ID NO: 52]")
"false"
>>> class_label("H[Aib]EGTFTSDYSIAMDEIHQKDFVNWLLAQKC (bridge 16-20) [triple agonist of SEQ ID NO: 79]")
"false"

State whether 10% exceeds In vitro activity compared with native peptide (%) vs GLP-1 (cAMP EC50) recorded for H[Aib]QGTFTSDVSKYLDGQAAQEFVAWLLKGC [triple agonist of SEQ ID NO: 8] . false

Please state whether In vitro activity compared with native peptide (%) vs GLP-1 (cAMP EC50) is below 10% for Y[Aib]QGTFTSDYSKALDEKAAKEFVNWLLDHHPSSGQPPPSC (bridge 16-20) [triple agonist of SEQ ID NO: 98] false

Report whether reported In vitro activity compared with native peptide (%) vs GLP-1 (cAMP EC50) is lower than 10% (strictly) for [Acetyl(2-(4-imidazolyl))][Aib]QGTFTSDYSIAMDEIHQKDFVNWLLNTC (bridge 16-20) [triple agonist of SEQ ID NO: 87] true
